B1: Transmembrane protein 43 (Homo sapiens), Q9BTV4 (parent)
chain: MAANYSSTSTRREHVKVKTSSQPGFLERLSETSGGMFVGLMAFLLSFYLIFTNEGRALKTATSLAEGLSLVVSPDSIHSVAPENEGRLVHIIGALRTSKLLSDPNYGVHLPAVKLRRHVEMYQWVETEESREYTEDGQVKKETRYSYNTEWRSEIINSKNFDREIGHKNPSAMAVESFMATAPFVQIGRFFLSSGLIDKVDNFKSLSLSKLEDPHVDIIRRGDFFYHSENPKYPEVGDLRVSFSYAGLSGDDPDLGPAHVVTVIARQRGDQLVPFSTKSGDTLLLLHHGDFSAEEVFHRELRSNSMKTWGLRAAGWMAMFMGLNLMTRILYTLVDWFPVFRDLVNIGLKAFAFCVATSLTLLTVAAGWLFYRPLWALLIAGLALVPILVARTRVPAKKLE
partner: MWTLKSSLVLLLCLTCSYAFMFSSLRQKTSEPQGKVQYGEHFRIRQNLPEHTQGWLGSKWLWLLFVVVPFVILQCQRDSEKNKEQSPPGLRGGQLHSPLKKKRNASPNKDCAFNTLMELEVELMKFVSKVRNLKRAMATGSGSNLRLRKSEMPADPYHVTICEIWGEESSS

variants of: B1; settings: with FAM209A

mutation spec	effect of a mutation on the interaction
R28W	with no effect
Y371H	with no effect
I91V	with no effect
